# ASSAY OVERVIEW: Distribution at steady state was determined in dogs dosed at […] and 1 mg/kg po in 0.5% HPMC w/0.1%Tween 80 (n=2)
# Format: ADME, organism-based, Canis lupus familiaris
# CONDITION SUMMARY: dog, in vivo, iv, read-out: Vdss
REPORTED PROPERTY: Vd

INSERT INTO results (structure_as_smiles, reported_result) VALUES
  ('CCS(=O)(=O)c1ccc(OC)c(Nc2ncc(-c3cccc(-c4ccccn4)c3)o2)c1.CS(=O)(=O)O', '3.74 L/kg');

====

# ASSAY OVERVIEW: Distribution at steady state was determined in rats dosed at […] iv in 10% HP-alpha-cyclodextrin in 0.05 M acetic acid and 10 mg/kg po in 0.5% HPMCw/0.1% Tween 80 (n=3)
# Format: ADME, organism-based
# CONDITION SUMMARY: rat, in vivo, read-out: Vdss
REPORTED PROPERTY: Vd (L/kg)

INSERT INTO results (structure_as_smiles, uom, reported_result) VALUES
  ('CCS(=O)(=O)c1ccc(OC)c(Nc2ncc(-c3cccc(-c4ccccn4)c3)o2)c1.CS(=O)(=O)O', 'L/kg', 1.03);
